// data source = ChEMBL document CHEMBL1201862

system: OVCAR-3; assay: NCI tumour cell line growth inhibition, 48 h
Activity calls are given as the source filed them. Cut-off read from the data, not from the text of the source: active = GI50 up to about 1.1 µM and inactive = higher.
Items are presented alongside their recorded GI50.
quantity-name: GI50

molecule=N#CS/C(Cl)=C(/C(Cl)=C(Cl)Cl)[N+](=O)[O-] study_system=OVCAR-3 result="21.9 µM (inactive)"
molecule=CC(C)(C)[C@H]1CO[C@]2(C)[C@@H]3C[C@@H]3C(=O)N12 study_system=OVCAR-3 result="> 100 µM (inactive)"
molecule="CC1(C)CC(O)C2=C(O1)C(=O)c1ncccc1C2=O (stereo unspecified)" study_system=OVCAR-3 result="2.35 µM (inactive)"
molecule="O=C(CC(C(=O)c1ccsc1)c1ccccc1)c1cccs1 (stereo unspecified)" study_system=OVCAR-3 result="96.8 µM (inactive)"
molecule=CN1CCc2c1nc(-c1cccnc1)c1c2N(C)CC1 study_system=OVCAR-3 result="65.8 µM (inactive)"
molecule=CC[P+]1(c2ccccc2)CCCCC1 study_system=OVCAR-3 result="> 100 µM (inactive)"
molecule=CN(c1ccccc1Cl)S(=O)(=O)c1ccccc1[N+](=O)[O-] study_system=OVCAR-3 result="37.8 µM (inactive)"
molecule=CC(C)=CCC[C@@H](C)C1=C(Nc2ccccc2Cl)C(=O)C(C)=C(O)C1=O study_system=OVCAR-3 result="3.36 µM (inactive)"
molecule="CCSC1(SCC)CC(Cc2ccc(OC)cc2)N(/C=N/C(C)(C)C)C1 (stereo unspecified)" study_system=OVCAR-3 result="27.8 µM (inactive)"
molecule=CCOC(=O)/C=C(/C(=O)OCC)n1cc(C)c(=O)n(Cc2cnnn2COCCOC(C)=O)c1=O study_system=OVCAR-3 result="15.3 µM (inactive)"
molecule=CSc1nc(=S)[nH]c2[nH]nc(C)c12 study_system=OVCAR-3 result="> 100 µM (inactive)"

* * *

Items are presented alongside their recorded GI50.
tested on: HOP-92; assay: NCI tumour cell line growth inhibition, 48 h
Activity calls are given as the source filed them. Rule as the data show it: active = GI50 up to about 1.1 µM and inactive = higher.
quantity-name: GI50

molecule=BrC(Br)([P+](c1ccccc1)(c1ccccc1)c1ccccc1)[P+](c1ccccc1)(c1ccccc1)c1ccccc1 quantity_name=GI50 result="11.1 µM (inactive)"
molecule="C=CCN1CCC(O)(c2cc(C(=O)OCC)[nH]c2-c2cc(C)no2)C1 (stereo not given)" quantity_name=GI50 result="> 100 µM (inactive)"
molecule="Cc1ccc(NC(=O)C(=O)C2C(=O)N(c3ccccc3)N=C2N)cc1C (stereo not given)" quantity_name=GI50 result="> 100 µM (inactive)"
molecule=O=C1Nc2ccccc2/C1=N/NC(=S)N1CCCCCC1 quantity_name=GI50 result="1.82 µM (inactive)"
molecule=O=c1[nH]c(=O)c2c([nH]1)[nH]c1ccc(Br)cc12 quantity_name=GI50 result="62.5 µM (inactive)"
molecule=O=C1CCCC2=C1CC1=C(CCCC1=O)N2c1ccc(-c2ccccc2)cc1 quantity_name=GI50 result="> 75.3 µM (inactive)"
molecule=COc1ccccc1NC(=S)NN=C(C)c1cccc(C(C)=NNC(=S)Nc2ccccc2OC)n1 quantity_name=GI50 result="21.7 µM (inactive)"
molecule=CC(C)CNC(=O)O quantity_name=GI50 result="> 100 µM (inactive)"
molecule="CC1(C)OCC([C@H]2O[C@@H](CC(=S)NCCCCCCCCCCCCNC(=S)C[C@H]3O[C@@H](C4COC(C)(C)O4)[C@H]4OC(C)(C)O[C@H]43)[C@H]3OC(C)(C)O[C@H]32)O1 (stereo not given in full)" quantity_name=GI50 result="> 100 µM (inactive)"
molecule=COCCCCCC(=O)CP(=O)(OC)OC quantity_name=GI50 result="> 100 µM (inactive)"
molecule=Clc1ccc(Nc2nnc(CCCCCCCCc3nnc(Nc4ccc(Cl)cc4)o3)o2)cc1 quantity_name=GI50 result="23.8 µM (inactive)"
molecule=Cc1cc(N(CCC#N)CCC#N)ccc1/N=N/c1cccc(Cl)c1 quantity_name=GI50 result="20.7 µM (inactive)"
molecule="CC(=O)OC1CCn2c1nc1cc([N+](=O)[O-])c(C)cc12 (stereo not given)" quantity_name=GI50 result="> 100 µM (inactive)"
molecule=COC(=N)/C(=C1\OC(=N)C(c2ccc(Cl)cc2)=C1O)c1ccc(Cl)cc1 quantity_name=GI50 result="> 100 µM (inactive)"
molecule=Cc1ccccc1C1=[N+]([O-])c2ccccc2C1=O quantity_name=GI50 result="49.4 µM (inactive)"
molecule=O=c1[nH]c(=O)n(COCCOCc2ccccc2)cc1Nc1ccccc1 quantity_name=GI50 result="> 100 µM (inactive)"
molecule=N#CCCN(CCC#N)c1ccc(/C=C2\N=C(c3ccccc3)N(NC(N)=S)C2=O)cc1 quantity_name=GI50 result="> 100 µM (inactive)"
molecule="COc1ccc(C2CCc3cc4c(cc3/C2=N/OC(C)=O)OCO4)cc1OC (stereo not given)" quantity_name=GI50 result="23.1 µM (inactive)"
molecule="CC(C)C1CCC(=O)CC1CCCCC1CC(=O)CC1O[Si](C)(C)C(C)(C)C (stereo not given)" quantity_name=GI50 result="3.3 µM (inactive)"
molecule="Cc1cn(C2CC(OC(c3ccccc3)(c3ccccc3)c3ccccc3)C(COC(c3ccccc3)(c3ccccc3)c3ccccc3)O2)c(=O)[nH]c1=O (stereo not given)" quantity_name=GI50 result="21.1 µM (inactive)"
